- studyTarget: human TRPA1 (Homo sapiens (Human))
- Sequence (O75762 whole entry): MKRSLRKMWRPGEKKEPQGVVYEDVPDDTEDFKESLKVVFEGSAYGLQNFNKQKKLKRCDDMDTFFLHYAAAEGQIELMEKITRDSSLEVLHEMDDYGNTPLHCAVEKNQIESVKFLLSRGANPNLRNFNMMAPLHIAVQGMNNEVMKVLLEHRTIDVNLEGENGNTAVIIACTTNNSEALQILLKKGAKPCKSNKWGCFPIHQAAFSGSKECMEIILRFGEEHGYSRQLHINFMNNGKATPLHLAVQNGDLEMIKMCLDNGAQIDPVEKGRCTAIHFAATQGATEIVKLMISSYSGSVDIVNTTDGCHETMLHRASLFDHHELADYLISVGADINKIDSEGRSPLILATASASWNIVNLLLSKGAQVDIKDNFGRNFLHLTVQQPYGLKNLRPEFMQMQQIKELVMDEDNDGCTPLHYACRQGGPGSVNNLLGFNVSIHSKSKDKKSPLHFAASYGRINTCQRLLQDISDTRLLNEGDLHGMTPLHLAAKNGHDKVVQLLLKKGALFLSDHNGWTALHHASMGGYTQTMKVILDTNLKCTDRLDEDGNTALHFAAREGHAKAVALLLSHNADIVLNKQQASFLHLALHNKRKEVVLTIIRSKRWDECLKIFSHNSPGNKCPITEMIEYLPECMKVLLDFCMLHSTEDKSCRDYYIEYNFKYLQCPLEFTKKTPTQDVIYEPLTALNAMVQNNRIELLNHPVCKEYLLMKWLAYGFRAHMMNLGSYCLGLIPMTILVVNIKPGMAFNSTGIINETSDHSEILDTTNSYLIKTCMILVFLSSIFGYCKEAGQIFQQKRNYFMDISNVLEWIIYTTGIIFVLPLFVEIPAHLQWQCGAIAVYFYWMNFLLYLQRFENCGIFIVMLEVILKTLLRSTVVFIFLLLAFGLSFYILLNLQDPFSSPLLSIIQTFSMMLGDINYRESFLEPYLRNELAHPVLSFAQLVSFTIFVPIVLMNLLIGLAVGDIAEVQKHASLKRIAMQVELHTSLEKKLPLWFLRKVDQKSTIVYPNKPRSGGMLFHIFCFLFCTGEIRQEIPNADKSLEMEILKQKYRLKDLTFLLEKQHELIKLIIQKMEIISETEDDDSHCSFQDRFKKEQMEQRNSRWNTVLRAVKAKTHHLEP
- experimentalProtocol: 45Calcium uptake assay, AITC induced, human TRPA1 expressing CHO cells
- measurementConditions: AITC 30 micromolar, read-out: IC50 values hTRPA1
outcomeMeasure: pIC50
// pIC50 is dimensionless: -log10 of concentration (M)

# annotated cases, reported pIC50 shown
                                        smi  measurement
0  Cn1c(=O)c2c(CC(=O)Nc3nc(-c4ccc(F)c(C(F)(F)F)c4F)cs3)c(Cl)oc2n(C)c1=O         8.00
1  CC(C)c1ccc(-c2csc(NC(=O)Cc3cccc4c3c(=O)n(C)c(=O)n4C)n2)cc1         7.22
2  Cn1c(=O)c2c(CC(=O)Nc3nc(-c4ccc(C(F)(F)F)c(F)c4)cs3)nsc2n(C)c1=O         8.17
3  Cn1c(=O)c2c(CC(=O)Nc3nc(-c4cc(F)c(CCC(F)(F)F)c(F)c4)cs3)coc2n(C)c1=O         8.47

For the next question, use this compound.
Measured pIC50 of Cn1c(=O)c2c(CC(=O)Nc3nc(-c4ccc(C(F)(F)F)c(F)c4)cs3)c(Cl)oc2n(C)c1=O : 8.30

Reference source for all entries: patent US9186360B2
